ENDPOINT LABEL: melting point

# GIVEN SMILES, ENDPOINT LABEL, VALUE
measured = [
    ("CCOc1ccc(Cl)cc1NC(=O)Nc1ccc(N2CCN(C(=O)Nc3c(C)cccc3Cl)CC2)cc1", "melting point", "159 to 161 °C"),
    ("COc1ccc(NC(=O)N2CCN(c3ccc(NC(=O)Nc4cc(F)ccc4OC)cc3)CC2)c(C)c1", "melting point", "216 to 218 °C"),
    ("CCc1ccc(NC(=O)Nc2ccc(N3CCN(C(=O)Nc4c(C)cccc4Cl)CC3)cc2)cc1", "melting point", "239 to 241 °C"),
    ("CCOc1ccccc1NC(=O)Nc1ccc(N2CCN(C(=O)Nc3ncccc3C)CC2)cc1", "melting point", "110 to 112 °C"),
    ("O=C(Nc1ccc(N2CCN(C(=O)Nc3ccc(OCCO)cc3C(F)(F)F)CC2)cc1)Nc1ccccc1F", "melting point", "219 to 220 °C"),
    ("CCOc1ccccc1NC(=O)Nc1ccc(N2CCN(C(=O)Nc3c(F)cccc3C(F)(F)F)CC2)nc1", "melting point", "177 to 179 °C"),
    ("COc1ccc(C)cc1NC(=O)Nc1ccc(N2CCN(C(=O)Nc3ccc(F)cc3F)CC2)cc1", "melting point", "201 to 203 °C"),
    ("COc1ccc(C)cc1NC(=O)Nc1ccc(N2CCN(C(=O)Nc3ccc(C(=O)O)cc3Cl)CC2)cc1", "melting point", "209 to 221 °C"),
    ("COc1ccc(C)cc1NC(=O)Nc1ccc(N2CCN(C(=O)Oc3c(C)cccc3Cl)CC2)cc1", "melting point", "146 to 148 °C"),
    ("COc1ccc(C)cc1NC(=O)Nc1ccc(N2CCN(C(=O)Nc3ccc(Br)cc3Cl)CC2)cc1", "melting point", "140 to 142 °C"),
    ("COc1ccc(C)cc1NC(=O)Nc1ccc(N2CCN(C(=O)Nc3ccc(OCCO)cc3Cl)CC2)c(F)c1", "melting point", "118 to 120 °C"),
    ("COc1ccc(C)cc1NC(=O)Nc1ccc2c(c1)CCN(C(=O)Nc1ccc(OCCO)cc1C(F)(F)F)C2", "melting point", "122 to 124 °C"),
    ("COc1ccc(C)cc1NC(=O)Nc1ccc(N2CCN(C(=O)Nc3ccccc3)CC2)cc1", "melting point", "221 °C"),
    ("CCOc1ccccc1NC(=O)Nc1ccc(N2CCN(C(=O)Nc3ccc(OC)cc3C)CC2)cc1", "melting point", "202 to 203 °C"),
    ("COc1ccc(C)cc1NC(=O)Nc1ccc(N2CCN(C(=O)Nc3ccc(F)cc3C(F)(F)F)CC2)nc1", "melting point", "186 to 187 °C"),
    ("COc1cccc(NC(=O)Nc2ccc(N3CCN(C(=O)Nc4ccc(OCCO)cc4C(F)(F)F)CC3)cc2)c1OC", "melting point", "135 to 138 °C"),
    ("COc1ccc(C)cc1NC(=O)Nc1ccc(N2CCN(C(=O)Nc3ccc(OCCO)cc3C(F)(F)F)CC2)nc1", "melting point", "198 to 200 °C"),
    ("COc1ccc(C)cc1NC(=O)Nc1ccc(N2CCN(C(=O)Nc3c(Cl)cccc3Cl)CC2)cc1", "melting point", "210 to 221 °C"),
    ("COc1ccc(NC(=O)N2CCN(c3ccc(NC(=O)Nc4cc(Cl)ccc4OC)cc3)CC2)c(C)c1", "melting point", "225 to 226 °C"),
    ("COc1ccc(C)cc1NC(=O)Nc1ccc(N2CCC(C(=O)Nc3c(C)cccc3Cl)CC2)cc1", "melting point", "> 250 °C (dec.)"),
    ("COc1cc(NC(=O)Nc2ccc3c(c2)CCN(C(=O)Nc2ccc(OCCO)cc2Cl)C3)cc(OC)c1", "melting point", "105 to 110 °C"),
    ("CCOc1ccccc1NC(=O)Nc1ccc(N2CCN(C(=O)Nc3c(C)cccc3Cl)CC2)nc1", "melting point", "185 to 186 °C"),
    ("COc1ccc(Cl)cc1NC(=O)Nc1ccc(N2CCN(C(=O)Nc3ccccc3C)CC2)cc1", "melting point", "230 to 232 °C"),
]

###

- EXPERIMENTAL TARGET: mouse DGAT1 (Mus musculus, UniProt Q9Z2A7)
- Construct: made in house; host or cells: insect cells (High Five, Sf9, Sf21, etc.), baculovirus expression system (Invitrogen)
- Sequence (Q9Z2A7 whole entry): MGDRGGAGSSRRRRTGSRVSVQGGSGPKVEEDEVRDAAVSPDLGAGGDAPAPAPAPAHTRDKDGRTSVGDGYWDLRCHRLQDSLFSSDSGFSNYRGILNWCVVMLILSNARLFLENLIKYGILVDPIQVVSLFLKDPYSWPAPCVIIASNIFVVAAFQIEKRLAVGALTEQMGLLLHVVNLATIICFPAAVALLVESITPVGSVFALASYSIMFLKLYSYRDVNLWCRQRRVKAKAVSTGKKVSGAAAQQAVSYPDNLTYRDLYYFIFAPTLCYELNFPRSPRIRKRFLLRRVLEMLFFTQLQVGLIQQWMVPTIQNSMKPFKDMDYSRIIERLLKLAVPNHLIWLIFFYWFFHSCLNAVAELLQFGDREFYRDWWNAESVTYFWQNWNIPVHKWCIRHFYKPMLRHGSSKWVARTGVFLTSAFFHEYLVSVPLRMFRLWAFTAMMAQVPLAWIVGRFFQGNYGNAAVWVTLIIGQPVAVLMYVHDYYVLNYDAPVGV
- PROCEDURE TEXT: DGAT1 inhibitory effect test (microsome fraction, [14C]-oleoyl-CoA, triglyceride radioactivity by TLC)
- Assay type: biochemical
- CONDITIONS USED: 0.5 h; concentration of the test compound 0.1 μg/ml; mouse DGAT1 microsomes, 23° C., 30 minutes; read-out: Inhibitory ratio
ENDPOINT LABEL: inhibition at 0.1 µg/mL

# COMPOUND, VALUE
rows = [
    ("COc1ccc(F)cc1NC(=O)Nc1ccc(N2CCN(C(=O)Nc3c(Cl)cccc3Cl)CC2)cc1", "≥ 50%"),
    ("CCOc1ccc(C)cc1NC(=O)Nc1ccc(N2CCN(C(=O)Nc3ncccc3C)CC2)cc1", "≥ 50%"),
    ("CC(C)(C)c1csc(NC(=O)Nc2ccc(N3CCN(C(=O)Nc4ccc(OCCO)cc4C(F)(F)F)CC3)cc2)n1", "≥ 50%"),
    ("CCOc1ccc(Cl)cc1NC(=O)Nc1ccc(N2CCN(C(=O)Nc3c(C)cccc3Cl)CC2)cc1", "≥ 50%"),
    ("CCOc1ccc(F)cc1NC(=O)Nc1ccc(N2CCN(C(=O)Nc3ccccc3C)CC2)cc1", "≥ 50%"),
    ("O=C(Nc1ccc(N2CCN(C(=O)C(O)c3ccccc3Cl)CC2)nc1)Nc1ccccc1F (stereo not shown)", "≥ 50%"),
    ("COc1ccc(C)cc1NC(=O)Nc1ccc(N2CCN(C(=O)Nc3c(Cl)cccc3Cl)CC2)nc1", "≥ 50%"),
    ("COc1cccnc1NC(=O)Nc1ccc(N2CCN(C(=O)Nc3ccc(OCCO)cc3Cl)CC2)cc1", "≥ 50%"),
    ("COc1ccc(NC(=O)N2CCN(c3ccc(NC(=O)Nc4cc(F)ccc4OC)cc3)CC2)c(C)c1", "≥ 50%"),
    ("CCOc1ccc(F)cc1NC(=O)Nc1ccc(N2CCN(C(=O)Nc3ccc(OC)cc3C)CC2)cc1", "≥ 50%"),
    ("COc1ccc(C)cc1NC(=O)Nc1ccc(N2CCN(C(=O)Nc3ccc(F)cc3C(F)(F)F)CC2)cc1", "≥ 50%"),
    ("CCOc1cccc(NC(=O)Nc2ccc(C3CCN(C(=O)Nc4ccc(OCCO)cc4Cl)CC3)cc2)c1", "≥ 50%"),
    ("COc1ccc(C)cc1NC(=O)Nc1ccc(C2=CCN(C(=O)Nc3ccc(OCCO)cc3C(F)(F)F)CC2)cc1", "≥ 50%"),
    ("CC(C)c1ccc(NC(=O)Nc2ccc(N3CCN(C(=O)OC(C)(C)C)CC3)cc2)cc1", "≥ 50%"),
    ("CCOc1ccc(Cl)cc1NC(=O)Nc1ccc(N2CCN(C(=O)Nc3ccccc3C(F)(F)F)CC2)cc1", "≥ 50%"),
    ("CCOc1ccc(F)cc1NC(=O)Nc1ccc(N2CCN(C(=O)Nc3ncccc3C)CC2)nc1", "≥ 50%"),
]

###

- EXPERIMENTAL TARGET: mouse DGAT1 (Mus musculus)
- Construct: made in house; host or cells: insect cells (High Five, Sf9, Sf21, etc.), baculovirus expression system (Invitrogen)
- PROCEDURE TEXT: DGAT1 inhibitory effect test (microsome fraction, [14C]-oleoyl-CoA, triglyceride radioactivity by TLC)
- Type: biochemical
- CONDITIONS USED: 0.5 h; concentration of the test compound 0.1 μg/ml; mouse DGAT1 microsomes, 23° C., 30 minutes; read-out: Inhibitory ratio
ENDPOINT LABEL: inhibition at 0.1 µg/mL

# COMPOUND, EXPERIMENTAL TARGET, VALUE
data = [
    ("COc1ccc(C)cc1NC(=O)Nc1ccc(N2CCN(C(=O)Nc3cc(OCCO)ccc3Cl)CC2)nc1 [Example 238]", "mouse DGAT1 (Mus musculus)", "≥ 50%"),
    ("Cc1ccc(Cl)cc1NC(=O)Nc1ccc(N2CCN(C(=O)OC(C)(C)C)CC2)cc1 [Example 35]", "mouse DGAT1 (Mus musculus)", "≥ 50%"),
    ("CSc1ccccc1NC(=O)Nc1ccc(N2CCN(C(=O)Nc3ccc(OCCO)cc3C(F)(F)F)CC2)cc1 [Example 241]", "mouse DGAT1 (Mus musculus)", "≥ 50%"),
    ("COc1ccc(C)cc1NC(=O)Nc1ccc(N2CCN(C(=O)Nc3ccccc3C)CC2)cc1 [Example 54]", "mouse DGAT1 (Mus musculus)", "≥ 50%"),
]

###

Listed next: entries and their corresponding melting point.

# MOLECULE, melting point
measured = [
    ("COc1ccc(C)cc1NC(=O)Nc1ccc(N2CCN(C(=O)Nc3cccc(Cl)c3C)CC2)cc1 [Example 136]", "228 to 230 °C"),
    ("COc1ccc(F)cc1NC(=O)Nc1ccc(N2CCN(C(=O)Nc3c(C)cccc3C)CC2)nc1 [Example 149]", "226 to 228 °C"),
    ("CCOc1ccc(NC(=O)Nc2ccc(N3CCN(C(=O)OC(C)(C)C)CC3)cc2)cc1 [Example 23]", "198 to 200 °C"),
    ("COc1ccc(F)cc1NC(=O)Nc1ccc(N2CCN(C(=O)OC(C)(C)C)CC2)cc1 [Example 44]", "200 to 202 °C"),
]
